Source: BigSolDB 2.1

- conditionSet: in dimethyl carbonate, 327.35 K
endpoint: solubility (mole fraction)

What value of measured solubility (mole fraction) is listed for "Cc1ccc(N)cc1N" ?
0.126

====

- conditionSet: in di(2-ethylhexyl) phthalate, 363.55 K
endpoint: solubility (mole fraction)
Output spec: single numeric token, no unit.

Can you share its solubility (mole fraction)? I mean this molecule: "COC(=O)Nc1ccc(C)c(N)c1"
0.081

====

- conditionSet: in dimethyl carbonate, 312.85 K
endpoint: solubility (mole fraction)
Provide a numeric answer; units are not to be included.

What does the data say about its solubility (mole fraction)? Entry: "Cc1ccc(N)cc1N"
0.116

====

- conditionSet: in di(2-ethylhexyl) phthalate, 378.65 K
endpoint: solubility (mole fraction)
Reply with the value as a number alone.

Suppose we examine the molecule "COC(=O)Nc1ccc(C)c(NC(=O)OC)c1" ; what solubility (mole fraction) value has been reported?
0.186

====

- conditionSet: in dimethyl carbonate, 335.85 K
endpoint: solubility (mole fraction)
Please give only the number in your answer, with no unit.

Could you tell me which solubility (mole fraction) is on file for "COC(=O)Nc1ccc(C)c(NC(=O)OC)c1" ?
0.0258

====

- conditionSet: in dimethyl carbonate, 307.75 K
endpoint: solubility (mole fraction)

Fill in the blank: the reported solubility (mole fraction) of "COC(=O)Nc1ccc(C)c(NC(=O)OC)c1" is ____.
0.0087

====

- conditionSet: in dimethyl carbonate, 314.25 K
endpoint: solubility (mole fraction)

Give the measured solubility (mole fraction) of "COC(=O)Nc1ccc(C)c(N)c1" .
0.0446

====

- conditionSet: in di(2-ethylhexyl) phthalate, 349.75 K
endpoint: solubility (mole fraction)
Please give the numeric answer without any surrounding text.

Item "Cc1ccc(N)cc1N" has what recorded solubility (mole fraction)?
0.108

====

- conditionSet: in dimethyl carbonate, 333.45 K
endpoint: solubility (mole fraction)
// print number alone

Given "Cc1ccc(N)cc1N" , state its recorded solubility (mole fraction).
0.129

====

- conditionSet: in dimethyl carbonate, 310.05 K
endpoint: solubility (mole fraction)

Which measured solubility (mole fraction) value corresponds to "Cc1ccc(N)cc1N" ?
0.113

====

- conditionSet: in di(2-ethylhexyl) phthalate, 333.75 K
endpoint: solubility (mole fraction)

# input compound: "COC(=O)Nc1ccc(C)c(N)c1" ; wanted: its solubility (mole fraction)
0.0422

====

- conditionSet: in dimethyl carbonate, 341.85 K
endpoint: solubility (mole fraction)
Output: the number by itself.

Sample "COC(=O)Nc1ccc(C)c(N)c1" — what was its solubility (mole fraction)?
0.0756

====

- conditionSet: in dimethyl carbonate, 316.75 K
endpoint: solubility (mole fraction)
Provide a numeric answer; units are not to be included.

Recorded solubility (mole fraction) of "COC(=O)Nc1ccc(C)c(N)c1" , please.
0.0499

====

- conditionSet: in di(2-ethylhexyl) phthalate, 340.05 K
endpoint: solubility (mole fraction)
// response body must contain only the number

What does the record list as solubility (mole fraction) for "Cc1ccc(N)cc1N" ?
0.0972
